# System: Saccharomyces cerevisiae
# protocol description: protein stability index of tFT-peptide fusion (C-terminal peptide) (PSI (0-1 scale)); higher = more stable (slower turnover)
# reported conditions: genetic background: wild type; temperature: 30 C
protein stability index for assorted sequences
Keep the answer to the number alone.

PTLSPRSPRFAS	0.755
LKYEGPKYHMKR	0.691
SASPPLAERRGQ	0.655
VFDHVGWPFWSY	0.714

Here is another sequence to look at.
Query: Reported protein stability index for YQRENYERKGYR : what is it?
Reply: 0.681

###

# Tested on: Saccharomyces cerevisiae
# protocol description: protein stability index of tFT-peptide fusion in wild type (PSI (0-1 scale)); higher = more stable (slower turnover)
# reported conditions: genetic background: wild type
The threshold is inclusive: protein stability index of exactly 0.3 counts as Met; values below receive Not met.

Use the examples below as a reference point.
TLIQPLPVQFLN	Not met
VRGDVGGWRLVG	Not met
FSMRWTVRYWVN	Not met
RLIQPLPVQFAN	Met

Query: hey, is protein stability index for this one >= 0.3? ARWRVGLWRGYS
Reply: Met

Query: hey, is protein stability index for this one >= 0.3? RLIQPLPSQFLN
Reply: Not met

Query: hey, is protein stability index for this one >= 0.3? PSSAASFWRVVG
Reply: Not met

Query: hey, is protein stability index for this one >= 0.3? KKHKKGQKQKIT
Reply: Not met

Query: hey, is protein stability index for this one >= 0.3? CLVSLPILLFFRD
Reply: Not met

Query: hey, is protein stability index for this one >= 0.3? RLIQPLPVQFLW
Reply: Met

Query: hey, is protein stability index for this one >= 0.3? KKHKKGQWQKIN
Reply: Not met

Query: hey, is protein stability index for this one >= 0.3? FSMRWTFRYWVNF
Reply: Not met

Query: hey, is protein stability index for this one >= 0.3? FSMRWTFRYWVNH
Reply: Not met

Query: hey, is protein stability index for this one >= 0.3? CISCGYKFRTNN
Reply: Not met

Query: hey, is protein stability index for this one >= 0.3? RSLRALLPLYFR
Reply: Met

Query: hey, is protein stability index for this one >= 0.3? CTSCHYKFRTNN
Reply: Not met

Query: hey, is protein stability index for this one >= 0.3? NSLRVLLPLYFR
Reply: Met

Query: hey, is protein stability index for this one >= 0.3? ARWRVGLWRMAS
Reply: Not met

Query: hey, is protein stability index for this one >= 0.3? FSMRWTPRYWVN
Reply: Not met

Query: hey, is protein stability index for this one >= 0.3? GLYTCSVGCWFR
Reply: Met

Query: hey, is protein stability index for this one >= 0.3? LVQYLSCVACIN
Reply: Not met

Query: hey, is protein stability index for this one >= 0.3? KSMRWTFRYWVN
Reply: Not met

###

# Tested on: Saccharomyces cerevisiae
# protocol description: protein stability index of tFT-peptide fusion in wild type (PSI (0-1 scale)); higher = more stable (slower turnover)
# reported conditions: genetic background: wild type
The threshold is inclusive: protein stability index of exactly 0.4 counts as Met; values below receive Not met.

Use the examples below as a reference point.
AITLPMCPLLLRY	Not met
KKHKKGQKQPIN	Met
RLIQPLVVQFLN	Not met

Query: hey, is protein stability index for this one >= 0.4? ARWRVGLWRGCS
Reply: Not met

Query: hey, is protein stability index for this one >= 0.4? AITLPMCPLWLR
Reply: Not met

Query: hey, is protein stability index for this one >= 0.4? GLYMCSVGCWFA
Reply: Not met

Query: hey, is protein stability index for this one >= 0.4? PDKRNHLIKLLG
Reply: Not met

Query: hey, is protein stability index for this one >= 0.4? WRGAVGGWRLVG
Reply: Not met

Query: hey, is protein stability index for this one >= 0.4? PDKRRHLIKLLN
Reply: Not met

Query: hey, is protein stability index for this one >= 0.4? AITLPMWPLLLR
Reply: Not met

Query: hey, is protein stability index for this one >= 0.4? KNHKKGQKQKIN
Reply: Not met

Query: hey, is protein stability index for this one >= 0.4? CTSCGYKFRCNN
Reply: Met

Query: hey, is protein stability index for this one >= 0.4? CLISLPILLFFR
Reply: Not met

Query: hey, is protein stability index for this one >= 0.4? RVTRLDAIYFRIM
Reply: Not met

Query: hey, is protein stability index for this one >= 0.4? RSLRTLLPLYFR
Reply: Met

Query: hey, is protein stability index for this one >= 0.4? RLIIPLPVQFLN
Reply: Not met

Query: hey, is protein stability index for this one >= 0.4? RLIQPAPVQFLN
Reply: Not met

Query: hey, is protein stability index for this one >= 0.4? CLVSLPDLLFFR
Reply: Not met

Query: hey, is protein stability index for this one >= 0.4? RLIQPLDVQFLN
Reply: Not met
